Sourced from patent US20250002507A1

TGT: Human M4 (Homo sapiens)
Construct: expressed in transfected cells
ASSAY_TEXT: mAChR M4 cell-based functional assay (calcium flux, potentiation of EC20 acetylcholine response), hM4-Gqi5 CHO-K1 cells
MEASUREMENT_CONDITIONS: hM4-Gqi5 CHO-K1 cells, calcium flux, PAM of EC20 acetylcholine; read-out: Human M4 EC50
pEC50: −log10 of the molar value.
EXPERIMENTAL_READOUT: pEC50

Before answering, review these 5 worked examples.
compound=Cc1ccc(F)c(Nc2cnc3c(c2)CN(c2nn4cnnc4c(C)c2C)CC3)c1 recorded_number=6.53
compound=Cc1c(N2CCc3ncc(-c4cnn(C5CCCC5)c4)cc3C2)nn2cnnc2c1C recorded_number=6.70
compound=COc1cccc(Nc2cnc3c(c2)CN(c2nn4cnnc4c(C)c2C)CC3)c1F recorded_number=6.73
compound=CCn1ccc(-c2cnc3c(c2)CN(c2nn4cnnc4c(C)c2C)CC3)n1 recorded_number=6.68
compound=Cc1c(N2CCc3ncc(Oc4ccc5c(cnn5C)c4)cc3C2)nn2cnnc2c1C recorded_number=6.70

[a] CSc1ccccc1Nc1cnc2c(c1)CN(c1nn3cnnc3c(C)c1C)CC2
[b] Cc1c(N2CCc3ncc(-c4cncs4)cc3C2)nn2cnnc2c1C
Would you kindly point out which of a and b has the smaller pEC50 figure? Answer by stating the label of the chosen item.
a

---

TGT: Human M4 (Homo sapiens, UniProt P08173)
Construct: expressed in transfected cells
Sequence (P08173 1-479): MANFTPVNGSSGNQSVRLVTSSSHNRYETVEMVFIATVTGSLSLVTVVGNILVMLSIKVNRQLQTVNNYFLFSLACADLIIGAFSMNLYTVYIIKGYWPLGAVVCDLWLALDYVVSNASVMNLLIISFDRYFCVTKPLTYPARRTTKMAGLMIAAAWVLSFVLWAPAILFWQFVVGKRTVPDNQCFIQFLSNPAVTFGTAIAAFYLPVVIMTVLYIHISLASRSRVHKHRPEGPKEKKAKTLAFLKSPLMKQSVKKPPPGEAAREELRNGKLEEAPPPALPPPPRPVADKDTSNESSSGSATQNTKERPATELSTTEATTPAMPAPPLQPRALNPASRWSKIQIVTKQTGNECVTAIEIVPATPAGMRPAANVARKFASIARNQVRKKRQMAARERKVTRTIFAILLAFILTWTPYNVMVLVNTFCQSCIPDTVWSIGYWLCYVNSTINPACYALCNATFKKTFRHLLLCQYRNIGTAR
ASSAY_TEXT: mAChR M4 cell-based functional assay (calcium flux, potentiation of EC20 acetylcholine response), hM4-Gqi5 CHO-K1 cells
MEASUREMENT_CONDITIONS: CHO-K1; % ACh maximum at 30 μM; human M4; read-out: Emax
Description: […] Calcium flux was measured using the Functional Drug Screening System (FDSS) 6000 or 7000 (Hamamatsu Corporation, Tokyo, Japan) as an increase in the fluorescent static ratio. […] Agonist activity was analyzed as a concentration-dependent increase in calcium mobilization upon compound addition. Positive allosteric modulator activity was analyzed as a concentration-dependent increase in the EC20 acetylcholine response. […]
EXPERIMENTAL_READOUT: Emax at 30 µM (%)

Reference set (7 entries):
smiles_string=Cc1c(N2CCc3ncc(-c4cnn(CC5CC5)c4)cc3C2)nn2c(C)nnc2c1C recorded_number=91
smiles_string=Cc1c(N2CCc3ncc(C(=O)NC4CC4)cc3C2)nn2cnnc2c1C recorded_number=60
smiles_string=Cc1c(N2CCc3ncc(NC(=O)C4CC4)cc3C2)nn2cnnc2c1C recorded_number=76
smiles_string=COc1ccc(Oc2cnc3c(c2)CN(c2nn4cnnc4c(C)c2C)CC3)cc1Cl recorded_number=57
smiles_string=Cc1c(N2CCc3ncc(Nc4ncccc4F)cc3C2)nn2cnnc2c1C recorded_number=72
smiles_string=COc1ccc(Nc2cnc3c(c2)CN(c2nn4cnnc4c(C)c2C)CC3)c(F)c1 recorded_number=93
smiles_string=Cc1c(N2CCc3ncc(-c4cnn(Cc5ccccn5)c4)cc3C2)nn2cnnc2c1C recorded_number=94

[a] Cc1ncc(-c2cnc3c(c2)CN(c2nn4cnnc4c(C)c2C)CC3)cn1
[b] Cc1c(N2CCc3ncc(-c4cnn(C5CC5)c4)cc3C2)nn2cnnc2c1C
When the recorded Emax at 30 µM values are compared, which is smaller: that of a or that of b ? Lab note: record the label of whichever item you select.
a
(a: 59%, b: 93%)

---

TGT: Human M4 (Homo sapiens, UniProt P08173)
Construct: expressed in transfected cells
ASSAY_TEXT: mAChR M4 cell-based functional assay (calcium flux, potentiation of EC20 acetylcholine response), hM4-Gqi5 CHO-K1 cells
MEASUREMENT_CONDITIONS: Table 4; potentiation of EC20 acetylcholine response, calcium flux, CHO-K1 cells; read-out: Human M4 EC50
pEC50: −log10 of the molar value.
EXPERIMENTAL_READOUT: pEC50

Worked examples follow.
compound="Cc1cnccc1Nc1cnc2c(c1)CN(c1nn3cnnc3cc1C)CC2 [Compound 364]" recorded_number=5.60
compound="Cc1c(N2CCc3ncc(N4CC5CC4CO5)cc3C2)nn2c(C(F)(F)F)nnc2c1C (centres unmarked) [Compound 316]" recorded_number=6.24
compound="Cc1c(N2CCc3ncc(Cc4cccc(F)c4)cc3C2)nn2cnnc2c1C [Compound 311]" recorded_number=6.61

[A] [2H]C1([2H])Cc2ncc(Nc3cc(C)ncc3F)cc2C([2H])([2H])N1c1nn2cnnc2c(C)c1C [Compound 353]
[B] Cc1c(N2CCc3ncc(N4CCN(C)C(=O)C4)cc3C2)nn2cnnc2c1C [Compound 333]
Response body: label of entry with the larger pEC50; valid values A , B . Answer by quoting the chosen item's label.
A
(A: 7.66, B: 5.87)

[a] Cc1c(N2CCc3ncc(Cc4cccc(F)c4)cc3C2)nn2c(C(F)(F)F)nnc2c1C [Compound 312]
[b] Cc1ccc(Oc2cnc3c(c2)CN(c2nn4cnnc4cc2C)CC3)c(F)c1 [Compound 310]
Pick one: a or b . Which one has the lower reported pEC50? I would appreciate it if you answered with the label of your choice.
a
(a: 5.74, b: 6.74)

---

TGT: Human M4 (Homo sapiens)
Construct: expressed in transfected cells
ASSAY_TEXT: mAChR M4 cell-based functional assay (calcium flux, potentiation of EC20 acetylcholine response), hM4-Gqi5 CHO-K1 cells
MEASUREMENT_CONDITIONS: CHO-K1; Table 3; Human M4; % ACh maximum at 30 μM; read-out: Emax (% ACh maximum at 30 μM)
EXPERIMENTAL_READOUT: Emax at 30 µM (%)

compound=COc1nc(Cl)ccc1-c1cnc2c(c1)CN(c1nn3cnnc3c(C)c1C)CC2 tgt="Human M4 (Homo sapiens)" recorded_number=85
compound=Cc1c(N2CCc3ncc(-c4ccc(N5CCC5)nc4)cc3C2)nn2cnnc2c1C tgt="Human M4 (Homo sapiens)" recorded_number=83
compound=Cc1c(N2CCc3ncc(Oc4cc(F)ccc4F)cc3C2)nn2cnnc2c1C tgt="Human M4 (Homo sapiens)" recorded_number=96
compound="COC1CCN(c2cnc3c(c2)CN(c2nn4c(C(F)(F)F)nnc4cc2C)CC3)C1 (stereo not shown)" tgt="Human M4 (Homo sapiens)" recorded_number=82

---

TGT: Human M4 (Homo sapiens, UniProt P08173)
Construct: expressed in transfected cells
ASSAY_TEXT: mAChR M4 cell-based functional assay (calcium flux, potentiation of EC20 acetylcholine response), hM4-Gqi5 CHO-K1 cells
MEASUREMENT_CONDITIONS: CHO-K1; % ACh maximum at 30 μM; human M4; read-out: Emax
EXPERIMENTAL_READOUT: Emax at 30 µM (%)

smiles_string=COc1ccncc1-c1cnc2c(c1)CN(c1nn3cnnc3c(C)c1C)CC2 experimental_readout="Emax at 30 µM" recorded_number=81
smiles_string=Cc1c(N2CCc3ncc(-c4ccn(C)n4)cc3C2)nn2cnnc2c1C experimental_readout="Emax at 30 µM" recorded_number=102
smiles_string=[2H]c1nnc2c(C)c(C)c(N3CCc4ncc(-c5c(C)nn(C)c5C)cc4C3)nn12 experimental_readout="Emax at 30 µM" recorded_number=99
smiles_string=Cc1c(N2CCc3ncc(-c4cnn(CC5CC5)c4)cc3C2)nn2cnnc2c1C experimental_readout="Emax at 30 µM" recorded_number=82

---

TGT: Human M4 (Homo sapiens)
Construct: expressed in transfected cells
ASSAY_TEXT: mAChR M4 cell-based functional assay (calcium flux, potentiation of EC20 acetylcholine response), hM4-Gqi5 CHO-K1 cells
MEASUREMENT_CONDITIONS: hM4-Gqi5 CHO-K1 cells, calcium flux, PAM of EC20 acetylcholine; read-out: Human M4 EC50
pEC50: −log10 of the molar value.
EXPERIMENTAL_READOUT: pEC50

smiles_string=Cc1c(N2CCc3ncc(-c4ccnn4C(C)C)cc3C2)nn2cnnc2c1C recorded_number=6.55
smiles_string=Cc1ccc2c(n1)CCN(c1nn3cnnc3c(C)c1C)C2 recorded_number=6.42
smiles_string=Cc1noc(C)c1-c1cnc2c(c1)CN(c1nn3c(C)nnc3c(C)c1C)CC2 recorded_number=6.64

[a] Cc1c(N2CCc3ncc(-c4ccc(F)nc4)cc3C2)nn2cnnc2c1C
[b] Cc1c(N2CCc3ncc(C(=O)NC4CC4)cc3C2)nn2cnnc2c1C
Decide: a or b , by lowest recorded pEC50. Your answer should be the label attached to the chosen record.
b
(b: 5.11, a: 6.66)
